# Target Entity: hKOPr (Homo sapiens)
# Assay type: binding
Where no end group is shown, it is not given here.
Readout: Selectivity DOPr/KOPr

Note to self: Selectivity DOPr/KOPr recorded for YGAFSRRQFKVVT [DynB_G3A/L5S] was 2,195

Record YGAFLRRHFKVVT [DynB_G3A/Q8H] . Reported Selectivity DOPr/KOPr: 1,508

// recorded Selectivity DOPr/KOPr for YGGFSRRQFKVVT [DynB_L5S] : 4,153

###

# Target Entity: hKOPr (Homo sapiens, UniProt P41145)
# Sequence (P41145 whole entry): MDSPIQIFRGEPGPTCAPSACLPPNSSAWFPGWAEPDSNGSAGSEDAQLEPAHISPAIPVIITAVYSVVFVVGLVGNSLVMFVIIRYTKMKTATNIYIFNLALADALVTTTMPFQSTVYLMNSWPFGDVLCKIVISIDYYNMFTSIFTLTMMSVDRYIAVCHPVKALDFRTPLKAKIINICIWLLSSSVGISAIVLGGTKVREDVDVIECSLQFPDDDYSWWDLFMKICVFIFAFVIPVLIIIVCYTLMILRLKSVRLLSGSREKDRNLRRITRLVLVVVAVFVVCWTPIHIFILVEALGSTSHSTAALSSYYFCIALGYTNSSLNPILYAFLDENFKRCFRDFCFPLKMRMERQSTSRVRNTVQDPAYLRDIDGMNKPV
# Protocol Notes: biochemical
# Assay Setup: read-out: Potency at hKOPr EC50
Where no end group is shown, it is not given here.
For each record, write down the corresponding pEC50.
When answering, recall that pEC50 equals minus log10 of the concentration in mol/L, and write that number alone.

pEC50 measured on YGMFLRRQFKVVT [DynB_G3M] = 7.85

Given item YGGFLRRHFKVVT [DynB_Q8H] , the value recorded as its pEC50 is 8.65

The reported value for YGGFSRRQFKVVT [DynB_L5S] in terms of pEC50 is 7.75

The sequence YGMFLRRHFKVVT [DynB_G3M/Q8H] showed pEC50 equal to 8.27

Documented pEC50 of YGAFLRRQFAVVT [DynB_G3A/K10 A] : 7.78
